experimental_system: COX-1 (Ovis aries, UniProt P05979)
Sequence (P05979 25-600): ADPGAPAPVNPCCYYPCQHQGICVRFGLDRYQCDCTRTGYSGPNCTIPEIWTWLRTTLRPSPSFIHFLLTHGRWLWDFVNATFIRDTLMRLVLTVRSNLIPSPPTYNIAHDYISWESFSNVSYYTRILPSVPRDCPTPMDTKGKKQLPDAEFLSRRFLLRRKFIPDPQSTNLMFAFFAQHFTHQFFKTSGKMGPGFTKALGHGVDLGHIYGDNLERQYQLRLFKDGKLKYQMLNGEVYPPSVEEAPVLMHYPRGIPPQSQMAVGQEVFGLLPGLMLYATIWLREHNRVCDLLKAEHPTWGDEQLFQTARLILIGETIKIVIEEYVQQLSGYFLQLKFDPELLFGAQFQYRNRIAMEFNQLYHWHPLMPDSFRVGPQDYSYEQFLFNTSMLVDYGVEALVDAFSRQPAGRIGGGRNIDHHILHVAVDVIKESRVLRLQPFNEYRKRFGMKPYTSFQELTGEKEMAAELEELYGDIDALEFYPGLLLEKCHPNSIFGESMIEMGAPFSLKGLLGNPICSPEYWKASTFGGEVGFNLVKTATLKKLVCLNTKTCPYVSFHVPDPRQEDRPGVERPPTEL
In this section we review reported IC50 values for a set of compounds.
Response body: numeric value in µM, unit text excluded.

COc1cc(CCC(=O)CC(=O)CCc2ccc(O)c(OC)c2)ccc1O [THC, tetrahydrocurcumin]; 918

As a next step, examine the compound that follows.
What does the record list as IC50 for COc1cc(/C=C/C(=O)CC(=O)/C=C/c2ccc(O)c(OC)c2)ccc1O ?
3390

* * *

Dear all, this message contains IC50 results, target or system UniProt:Q92831.
Sequence (Q92831 492-658 limits assumed): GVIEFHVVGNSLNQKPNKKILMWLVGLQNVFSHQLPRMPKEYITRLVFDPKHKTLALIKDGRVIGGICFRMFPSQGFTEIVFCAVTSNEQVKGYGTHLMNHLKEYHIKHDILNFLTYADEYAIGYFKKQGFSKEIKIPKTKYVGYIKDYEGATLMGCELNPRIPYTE
Response body: numeric value in µM, unit text excluded.

COc1cc(/C=C/C(=O)COC(=O)/C=C/c2ccc(O)c(OC)c2)ccc1O [Calebin-A, calebin-A]; 200

As a next step, examine the compound that follows.
What does the record list as IC50 for COc1cc(/C=C/C(=O)CC(=O)/C=C/c2ccc(O)c(OC)c2)ccc1O [Curcumin, curcumin] ?
33.1

Data origin, for the record: paper PMC5750651
